Measured EC50, listed per entry.
target: UniProt P43220; test: EC20 GLP-1(9-36) PAM cAMP assay: dose response of compound in the presence of fixed concentration of GLP-1(9-36); conditions: GLP-1R CRE-bla CHO-K1 cells, compound dose response in presence of fixed concentration of GLP-1(9-36)
Sequence (P43220 24-463): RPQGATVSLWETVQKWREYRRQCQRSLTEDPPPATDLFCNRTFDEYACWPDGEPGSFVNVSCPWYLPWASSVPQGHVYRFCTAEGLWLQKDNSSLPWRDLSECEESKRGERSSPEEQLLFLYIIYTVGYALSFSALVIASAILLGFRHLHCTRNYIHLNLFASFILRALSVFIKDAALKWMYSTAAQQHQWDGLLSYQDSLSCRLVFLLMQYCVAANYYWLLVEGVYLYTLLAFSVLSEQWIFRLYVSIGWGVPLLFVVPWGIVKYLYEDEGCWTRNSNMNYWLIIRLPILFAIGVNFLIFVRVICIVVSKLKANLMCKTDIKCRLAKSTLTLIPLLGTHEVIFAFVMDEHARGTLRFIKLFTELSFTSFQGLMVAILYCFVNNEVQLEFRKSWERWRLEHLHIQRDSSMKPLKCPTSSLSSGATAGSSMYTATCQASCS
Sequence (P01275 100-127 partner limits assumed): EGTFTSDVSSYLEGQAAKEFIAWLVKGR

The cases that follow already have their EC50 on record.
>>> df
                                   compound  target_or_system   value_reported
0  CC(C)(C)c1ccc(C(=O)N[C@@H](Cc2ccc(-c3ncc(-c4ccc(OC5CC5)cc4)cn3)cc2)C(=O)O)s1 [Compound 244]    UniProt P43220  2500 to 5000 nM
1  CC(C)Oc1ccc(-c2nc(-c3ccc(C[C@H](NC(=O)c4ccc(C(C)(C)C)cc4)C(=O)O)cc3)no2)cc1 [Compound 33]    UniProt P43220  2500 to 5000 nM
2  CCCCCCOc1ccc(-c2cnc(-c3ccc(C[C@H](NC(=O)c4ccc(C(C)(C)C)cc4)C(=O)O)cc3)nc2)cn1 [Compound 257]    UniProt P43220   800 to 2500 nM

API: the following record is the query input.
Per the record, CC(C)(C)c1ccc(C(=O)N[C@@H](Cc2ccc(-c3noc(-c4ccc(C(C)(C)C)cc4)n3)cc2)C(=O)O)cc1 [Compound 8] has EC50 of 800 to 2500 nM
